Reference source for all entries: PubChem BioAssay (NCI)

- Test system: NCI-H460 lung
- method: NCI tumour cell line growth inhibition, 48 h
Listing of entries alongside the reported TGI.

# example entries with known answers
CC(=O)/C(=C/c1ccccc1)C(=O)CC(C)C = 38.5 µM
N#CC(N=Nc1ccccc1C(=O)O)C(N)=O (centres undefined) = > 100 µM
C[C@@]1(C(=O)O)CCC[C@]2(C)C1CC[C@@]13C[C@@](O)(CC[C@]12O)[C@@]1(CO1)C3 (some centres undefined) = > 100 µM
Oc1ccc(O)c(-c2cn3c(n2)SCC3)c1 = > 100 µM
O=[N+]([O-])C(/C=C(\Cl)[N+](=O)[O-])=C1Nc2ccccc2N1 = > 100 µM
COC1C(O)CC(OC2CC(OC3CC(O[C@@H]4C(=O)c5c(cc6cc(OC7CC(OC8CC(O)C(O)C(C)O8)C(O)C(C)O7)c(C)c(O)c6c5O)CC4[C@H](OC)C(=O)O)OC(C)C3O)OC(C)C2O)OC1C (some centres undefined) = > 33.3 µM
CCCCOC(=O)c1ccc(N)cc1 = > 100 µM
COc1cccc(/C=C/C(=O)c2ccc(SC)cc2)c1OC = 36.2 µM

Lab book: TGI of Cn1c(=O)c(Oc2ccc(F)cc2F)cc2cnc(NC(C)(C)CO)nc21 noted as > 25 µM

The reported value for O=C(O)/C(Cl)=C(\Cl)C(=O)c1ccccc1 in terms of TGI is > 100 µM

Record CO[C@H]1C=CO[C@@]2(C)Oc3c(C)c(O)c4c(O)c(c(CN5CCN(C)CC5)c(O)c4c3C2=O)NC(=O)/C(C)=C\C=C[C@H](C)[C@H](O)C(C)[C@@H](O)C(C)[C@H](OC(C)=O)[C@@H]1C (some centres undefined) , field TGI: > 100 µM

Summary for this compound, O=c1[nH]c2ccccc2c2nc3ccccc3n12 : TGI is > 100 µM

Notebook: COc1ccc(/C=C/C(=O)/C=C/c2ccc(OC)cc2OC)c(OC)c1 , TGI read as 24 µM

TGI in this record for COc1ccc(/C(=N\NC(=O)NN)C(c2ccc(OC)cc2)C2(O)C(=O)Nc3c(Cl)cc(Cl)cc32)cc1 (centres undefined) : > 100 µM

====

- Test system: OVCAR-4 ovarian
- method: NCI tumour cell line growth inhibition, 48 h
Measured TGI by item

# example entries with known answers
NS(=O)(=O)c1nnc(NC(=O)C23CC4CC(CC(C4)C2)C3)s1 = 3.74 µM
OC1c2ccccc2CCC1CN1CCN(CCOC(c2ccc(F)cc2)c2ccc(F)cc2)CC1 (stereo not given) = > 100 µM
COc1cc2c(c(OC)c1OC)-c1ccc(O)cc1[C@@H](NC(C)=O)CC2 = > 100 µM
Cc1c(-c2ccc(C3CCCCC3)cc2)nc2ccc(F)cc2c1C(=O)O = > 100 µM
S=C(NCCc1ccccn1)N/N=C/c1ccccn1 = > 74.7 µM

The compound listed as CN1CN(C2OC(CO)C(O)C2O)c2nc(N)[nH]c(=O)c21 (stereo not given) shows TGI equal to > 100 µM

Sample COC(=O)C1CCC(=S)N1C(=O)OCc1ccccc1 (stereo not given) ; TGI observed: > 100 µM

Recorded result, CCCCN1CCCC[C@@H]1C(=O)N[C@H](C(=O)N(C)[C@H](C[C@@H](OC(C)=O)c1nc(C(=O)NC2CCC(C(=O)OC)CC2)cs1)C(C)C)C(C)C (stereo not given in full) , TGI: > 25 µM
